OBSERVABLE: melting point

compound="C[C@]12CC[C@@H](O)C[C@@H]1CCC1C3CC[C@@H]4[C@H]5O[C@H]5CC[C@]34CCC12 (stereo partly shown)" measured_result="206 to 208 °C"
compound="C[C@]12CC[C@@H](O)C[C@@H]1CCC1C3CC[C@@H]4C=CC=C[C@]34CCC12 (stereo partly shown)" measured_result="136 to 138 °C"
compound="CC12CCC(O)CC1CCC1C2CCC23CCCC(O)C2CCC13 (stereo not shown) [Compound 68]" measured_result="269 to 271 °C"

# input for lookup
Entry C=C1CC[C@]23CCC4C(CC[C@H]5C[C@H](O)CC[C@]45C)C2CC[C@@H]3C1 (stereo partly shown) — recorded melting point = 187 to 188 °C

----------
molecular target: rat α1β2γ2 GABAA Receptor (Rattus norvegicus, UniProt P18508+P62813+P63138, INS375LLRMFSFK); construct: from linearized pBluescript vectors containing receptor coding regions; expressed in transfected cells; host or cells: Xenopus laevis oocytes injected with in vitro transcribed capped mRNA; test: Xenopus oocyte two-electrode voltage-clamp electrophysiology; assay type: cell-based; conditions: 1 μM compound co-applied with 2 μM GABA; −70 mV
Sequence (P62813 28-455, stated change not applied): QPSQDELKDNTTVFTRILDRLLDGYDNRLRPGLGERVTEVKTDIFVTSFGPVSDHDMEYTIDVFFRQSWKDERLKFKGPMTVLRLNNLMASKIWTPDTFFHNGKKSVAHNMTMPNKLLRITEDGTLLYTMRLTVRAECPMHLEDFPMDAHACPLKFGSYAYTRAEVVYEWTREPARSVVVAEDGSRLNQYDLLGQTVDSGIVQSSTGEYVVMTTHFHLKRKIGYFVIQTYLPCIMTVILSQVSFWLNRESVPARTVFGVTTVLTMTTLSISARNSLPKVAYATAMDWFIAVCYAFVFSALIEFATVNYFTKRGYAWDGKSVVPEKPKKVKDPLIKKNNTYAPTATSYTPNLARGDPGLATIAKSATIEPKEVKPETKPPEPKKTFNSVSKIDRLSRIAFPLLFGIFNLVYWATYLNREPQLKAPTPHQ
Sequence (P63138 26-474, stated change not applied): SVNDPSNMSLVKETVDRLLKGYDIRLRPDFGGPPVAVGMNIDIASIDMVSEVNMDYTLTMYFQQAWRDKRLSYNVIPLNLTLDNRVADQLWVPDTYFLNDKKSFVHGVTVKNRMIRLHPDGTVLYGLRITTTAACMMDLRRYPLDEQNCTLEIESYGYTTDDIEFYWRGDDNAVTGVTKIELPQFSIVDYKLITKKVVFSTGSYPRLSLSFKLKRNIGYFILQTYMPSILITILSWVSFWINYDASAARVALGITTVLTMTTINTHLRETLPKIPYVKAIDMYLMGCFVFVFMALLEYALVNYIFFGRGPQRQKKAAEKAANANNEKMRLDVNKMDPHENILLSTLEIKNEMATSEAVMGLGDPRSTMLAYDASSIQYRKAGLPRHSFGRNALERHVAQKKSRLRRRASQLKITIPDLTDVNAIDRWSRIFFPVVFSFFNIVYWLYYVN
Sequence (P18508 with tags, fused parts or gaps INS375LLRMFSFK): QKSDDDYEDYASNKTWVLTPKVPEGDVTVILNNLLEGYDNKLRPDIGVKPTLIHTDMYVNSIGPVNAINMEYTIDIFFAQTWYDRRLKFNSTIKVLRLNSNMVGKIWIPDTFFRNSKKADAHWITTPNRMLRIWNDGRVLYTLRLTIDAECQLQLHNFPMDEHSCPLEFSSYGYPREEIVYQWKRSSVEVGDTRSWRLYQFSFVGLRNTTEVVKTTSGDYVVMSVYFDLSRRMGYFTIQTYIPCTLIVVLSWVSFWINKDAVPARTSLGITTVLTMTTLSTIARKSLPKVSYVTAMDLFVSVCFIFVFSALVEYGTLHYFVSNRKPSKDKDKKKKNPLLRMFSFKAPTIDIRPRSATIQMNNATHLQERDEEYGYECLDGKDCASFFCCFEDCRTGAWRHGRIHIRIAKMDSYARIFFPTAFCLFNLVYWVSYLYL
OBSERVABLE: Oocyte electrophysiology, ratio of currents in presence/absence of compound, 1 μM
Answer with a bare number; do not write a unit.

Some solved cases for reference:
compound="C[C@]12CC[C@@H](O)C[C@@H]1CCC1C3CC[C@@H]4[C@]5(CCC[C@]34CCC12)CO5 (stereo partly shown)" measured_result=5.46
compound="C[C@]12CC[C@@H](O)C[C@@H]1CCC1C3CC[C@@H]4C[C@H](C#N)CC[C@]34CCC12 (stereo partly shown)" measured_result=0.82
compound="CC12CCC(O)CC1CCC1C2CCC23CCCC(O)C2CCC13 (stereo not shown) [Compound 68]" measured_result=0.74

Attention now turns to another entry.
Just so you know, measured Oocyte electrophysiology, ratio of currents in presence/absence of compound, 1 μM for CC12CCC(O)CC1CCC1C2CCC23C(=O)CCCC2CCC13 (stereo not shown) [Compound 5b] came out at 3.45

----------
Biological target: GABAA receptor ([35S]-TBPS binding site, rat brain cortical membranes)
Assay: Displacement of [35S]-TBPS binding, rat brain cortical membranes
Conditions: 5 μM GABA, 2 nM [35S]-TBPS; ± standard error of the means
Description: Rat brain cortical membranes were prepared with minor modifications of the method previously reported. […] Where Rmax is the maximal effect, [conc] is steroid concentration, IC50 is the half-maximal inhibitor concentration and n is the Hill coefficient. Each data point was determined in triplicate and 2-3 full concentration-response curves were generated for each steroid.
pIC50: −log10 of the molar value.
Quick rule for you: pIC50 at 6 or higher means 1, lower means -1.

Sample answers from the record:
compound="CC12CCC(O)CC1CCC1C2CCC23CC=CC(=O)C2CCC13 (centres unmarked) [Compound 11a]" target_or_test_system="GABAA receptor ([35S]-TBPS binding site, rat brain cortical membranes)" class_label=1
compound="C[C@]12CC[C@@H](O)C[C@@H]1CCC1C3CC[C@@H]4[C@@H]5O[C@@H]5CC[C@]34CCC12 (some centres unmarked) [Compound 72]" target_or_test_system="GABAA receptor ([35S]-TBPS binding site, rat brain cortical membranes)" class_label=1
compound="CC12CCC(O)CC1CCC1C2CCC23CCC(=CC#N)C2CCC13 (centres unmarked) [Compound 96]" target_or_test_system="GABAA receptor ([35S]-TBPS binding site, rat brain cortical membranes)" class_label=1

(Q) State whether the measured pIC50 reaches 6, counting equality as reaching it, for CC12CCC(O)CC1CCC1C2CCC23CCCC(O)C2CCC13 (centres unmarked) [Compound 68]
(A) -1

(Q) For this compound, is measured pIC50 6 or higher? C=C1CC[C@]23CCC4C(CC[C@H]5C[C@H](O)CC[C@]45C)C2CC[C@@H]3C1 (some centres unmarked) [Compound 53]
(A) -1

(Q) # check: pIC50 of C[C@]12CC[C@@H](O)C[C@@H]1CCC1C3CC[C@@H]4CCC=C[C@]34CCC12 (some centres unmarked) [Compound 61] is greater than or equal to 6
(A) -1

----------
biological target: rat α1β2γ2 GABAA Receptor (Rattus norvegicus, UniProt P18508+P62813+P63138, INS375LLRMFSFK); construct: from linearized pBluescript vectors containing receptor coding regions; expressed in transfected cells; host or cells: Xenopus laevis oocytes injected with in vitro transcribed capped mRNA; assay: Xenopus oocyte two-electrode voltage-clamp electrophysiology; assay type: cell-based; details: 10 μM compound co-applied with 2 μM GABA; −70 mV
Recorded Oocyte electrophysiology, ratio of currents in presence/absence of compound, 10 μM determines the group label, using low = under 2, intermediate = from 2 up to 5, high = 5 and over

Completed entries (count: 5):
molecule="CC12CCC(O)CC1CCC1C2CCC23CC(=O)C=CC2CCC13 (centres unmarked) [Compound 22c]" class_label=intermediate
molecule="C[C@]12CC[C@@H](O)C[C@@H]1CCC1C3CC[C@@H]4C=CC=C[C@]34CCC12 (some centres unmarked)" class_label=low
molecule="C[C@]12CC[C@@H](O)C[C@@H]1CCC1C3CC[C@@H]4CC[C@H](C#N)C[C@]34CCC12 (some centres unmarked)" class_label=intermediate
molecule="CC12CCC(O)CC1CCC1C2CCC23CC4OC4C(=O)C2CCC13 (centres unmarked) [Compound 19a]" class_label=high
molecule="C[C@]12CC[C@@H](O)C[C@@H]1CCC1C3CC[C@@H]4CC(=O)CC[C@]34CCC12 (some centres unmarked)" class_label=intermediate

(Q) Band of C[C@]12CC[C@@H](O)C[C@@H]1CCC1C3CC[C@@H]4[C@H]5O[C@H]5CC[C@]34CCC12 (some centres unmarked) ?
(A) low

(Q) Categorize the following entry: CC12CCC(O)CC1CCC1C2CCC23CC4OC4C(=O)C2CCC13 (centres unmarked) [Compound 19b]
(A) high

(Q) Place this molecule in its band: C[C@]12CC[C@@H](O)C[C@H]1CCC1C3CCC4CCC(=O)C[C@@]43CCC12 (some centres unmarked)
(A) intermediate

(Q) Into which bin does this molecule go? C[C@]12CC[C@@H](O)C[C@@H]1CCC1C3CCC4CCC(=O)C[C@@]43CCC12 (some centres unmarked)
(A) high

(Q) For the record C[C@]12CC[C@@H](O)C[C@@H]1CCC1C3CC[C@@H]4[C@]5(CCC[C@]34CCC12)CO5 (some centres unmarked) , report the class its Oocyte electrophysiology, ratio of currents in presence/absence of compound, 10 μM corresponds to.
(A) intermediate

(Q) Which bin should I file CC12CCC(O)CC1CCC1C2CCC23CCC=CC2CCC13 (centres unmarked) [Compound 13b] under?
(A) intermediate

(Q) // return the class label for CC(=O)C1CCCC23CCC4C(CCC5CC(O)CCC54C)C2CCC13 (centres unmarked) [Compound 79]
(A) low

(Q) Band for CC12CCC(O)CC1CCC1C2CCC23CC=CC(=O)C2CCC13 (centres unmarked) [Compound 11a] ?
(A) high

(Q) Into which bin does this molecule go? C=C1CCC[C@]23CCC4C(CC[C@@H]5C[C@H](O)CC[C@]45C)C2CC[C@H]13 (some centres unmarked)
(A) high

----------
target: GABAA receptor ([35S]-TBPS binding site, rat brain cortical membranes); test: Displacement of [35S]-TBPS binding, rat brain cortical membranes; settings: 5 μM GABA, 2 nM [35S]-TBPS; ± standard error of the means
Mark label 1 only for IC50 values smaller than 600 nM; exact matches and larger values are label 0.

Study these solved cases before continuing.
compound="CC12CCC(O)CC1CCC1C2CCC23CCC=CC2CCC13 (stereo not drawn) [Compound 13b]" class_label="label 1"
compound="C[C@]12CC[C@@H](O)C[C@@H]1CCC1C3CC[C@@H]4C[C@H](C#N)CC[C@]34CCC12 (stereo partly drawn)" class_label="label 0"
compound="C[C@]12CC[C@@H](O)C[C@@H]1CCC1C3CCC4CCC(=O)C[C@@]43CCC12 (stereo partly drawn)" class_label="label 1"
compound="C=C1CCC[C@]23CCC4C(CC[C@@H]5C[C@H](O)CC[C@]45C)C2CC[C@H]13 (stereo partly drawn)" class_label="label 1"
compound="C[C@]12CC[C@@H](O)C[C@@H]1CCC1C3CC[C@@H]4C(=O)CCC[C@]34CCC12 (stereo partly drawn)" class_label="label 1"

(Q) Quick check: does C[C@]12CC[C@@H](O)C[C@@H]1CCC1C3CC[C@@H]4[C@]5(CCC[C@]34CCC12)CO5 (stereo partly drawn) have IC50 under 600 nM?
(A) label 1

----------
Measured LRR ED50 (loss of righting response), listed per entry for reference.
test system: Xenopus laevis tadpoles; test: Tadpole loss of righting (LRR) and swimming (LSR) reflexes; type: in vivo; settings: 3 h equilibration at room temperature
# output: bare number, implied unit µM

Use the examples below as a reference point.
compound="CC12CCC(O)CC1CCC1C2CCC23CC(=O)C=CC2CCC13 (stereo not drawn) [Compound 21c]" observable="LRR ED50 (loss of righting response)" measured_result=1.28
compound="CC12CCC(O)CC1CCC1C2CCC23CC4OC4C(=O)C2CCC13 (stereo not drawn) [Compound 19b]" observable="LRR ED50 (loss of righting response)" measured_result=0.96
compound="CC12CCC(O)CC1CCC1C2CCC23C=CC(=O)C2CCC13 (stereo not drawn)" observable="LRR ED50 (loss of righting response)" measured_result=3.37

Xenopus laevis tadpoles assay, compound CC12CCC(O)CC1CCC1C2CCC23C=CC(=O)CC2CCC13 (stereo not drawn) [Compound 30a] , recorded LRR ED50 (loss of righting response) = 0.73

The compound C[C@]12CC[C@@H](O)C[C@@H]1CCC1C3CC[C@@H]4C=CC=C[C@]34CCC12 (stereo partly drawn) , tested on Xenopus laevis tadpoles, showed LRR ED50 (loss of righting response) of 2.70

CC12CCC(O)CC1CCC1C2CCC23C=C(Br)C(=O)C2CCC13 (stereo not drawn) on Xenopus laevis tadpoles gives LRR ED50 (loss of righting response) = 0.29

All values here come from patent US7781421B2.
